Readings of Ki for the listed molecules
Molecular target: human IRAK4 (Homo sapiens (Human))
Sequence (Q9NWZ3 whole entry): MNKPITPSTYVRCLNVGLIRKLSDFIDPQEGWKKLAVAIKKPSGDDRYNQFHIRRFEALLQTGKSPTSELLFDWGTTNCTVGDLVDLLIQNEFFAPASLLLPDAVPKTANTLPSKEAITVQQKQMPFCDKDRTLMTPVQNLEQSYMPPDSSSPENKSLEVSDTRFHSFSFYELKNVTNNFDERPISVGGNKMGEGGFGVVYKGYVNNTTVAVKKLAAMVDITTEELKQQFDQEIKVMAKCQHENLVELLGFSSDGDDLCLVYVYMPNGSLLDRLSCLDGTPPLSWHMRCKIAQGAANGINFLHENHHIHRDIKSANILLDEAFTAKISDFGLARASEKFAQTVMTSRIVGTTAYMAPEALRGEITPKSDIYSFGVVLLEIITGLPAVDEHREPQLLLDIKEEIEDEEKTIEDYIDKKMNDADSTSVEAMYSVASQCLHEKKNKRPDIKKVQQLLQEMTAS
Assay: IRAK4 kinase inhibition, Transcreener fluorescence polarization (ADP)
Format: biochemical
Conditions: recombinant full-length His6-IRAK4 1.25 nM; 125 uM ATP; 125 uM peptide; 90 min; ATP Km 642 uM; read-out: IRAK4 Ki

MOLECULE | Ki
O=C(Nc1cc2c(cc1N1CCOCC1)C(=O)N(CCN1CCCC1)C2)c1cnn2cccnc12 | 22 nM
CC(C)(O)[C@H](F)CN1Cc2cc(NC(=O)c3cnn4cccnc34)c(OC3CCCC3)cc2C1=O | 0.97 nM
CC(C)(O)[C@H](F)CN1Cc2cc(NC(=O)c3cnn4cccnc34)c(OC3CC3)cc2C1=O | 0.63 nM
CC1(C)Cc2cc(NC(=O)c3cnn4cccnc34)c(O[C@H]3CN(CC(N)=O)C[C@@H]3N)cc2O1 | 53 nM
C[C@@]1(CCC#N)COc2cc(N3CCOCC3)c(NC(=O)c3cnn4cccnc34)cc2C1 | 19 nM
CC(C)N1CCN(c2cc3c(cc2NC(=O)c2cnn4cccnc24)CN(C[C@@H](F)C(C)(C)O)C3=O)CC1 | 7.5 nM
Cc1noc(C)c1CN1CCN(c2cc3c(cc2NC(=O)c2cnn4cccnc24)CC(C)(C)O3)CC1 | 14 nM
CC(C)(O)[C@H](F)CN1Cc2cc(NC(=O)c3cnn4cccnc34)c(OC[C@@H]3CNC(=O)C3)cc2C1=O | 3.2 nM
O=C(Nc1cc2c(cc1N1CCOCC1)N(CCCO)C(=O)CC2)c1cnn2cccnc12 | 240 nM
CCc1oc(=O)[nH]c1CN1CCN(c2cc3c(cc2NC(=O)c2cnn4cccnc24)CC(C)(C)O3)CC1 | 9.4 nM
Cc1cnc2c(C(=O)Nc3cc4c(cc3OC(C)C)C(=O)N(C[C@@H](F)C(C)(C)O)C4)cnn2c1 | 0.42 nM
CNc1cc2c(cc1NC(=O)c1cnn3cccnc13)CN(C[C@@H](F)C(C)(C)O)C2=O | 280 nM
O=C(Nc1cc2c(cc1N1CCOCC1)OCCS2)c1cnn2cccnc12 | 280 nM
CC(C)N1Cc2cc(NC(=O)c3cnn4cccnc34)c(C3CC3)cc2C1=O | 5.2 nM
CC(C)N1Cc2cc(NC(=O)c3cnn4cccnc34)c(N(C)C)c(CO)c2C1=O | 8.2 nM
CC(C)(O)[C@H](F)CN1Cc2cc(NC(=O)c3cnn4cccnc34)c(OC3COC3)cc2C1=O | 0.59 nM

====

Biological target: human IRAK4 (Homo sapiens (Human))
Assay: IRAK4 kinase inhibition, Transcreener fluorescence polarization (ADP)
Format: biochemical
Settings: recombinant full-length His6-IRAK4 1.25 nM; 125 uM ATP; 125 uM peptide; 90 min; ATP Km 642 uM; read-out: IRAK4 Ki
pKi: −log10 of the molar value.
Readings of pKi for the listed molecules

MOLECULE | pKi
CC(C)(O)[C@H](F)CN1Cc2cc(NC(=O)c3cnn4cccnc34)c(O[C@H]3CCNC3)cc2C1=O [Example 62] | 8.04
CC1(C)Cc2cc3c(cc2O1)N1CCN(CCNc2ccn4ncc(c4n2)C(=O)N3)CC1 [Example 45] | 6.92
CC(C)Oc1cc2c(cc1NC(=O)c1cnn3cccnc13)CN([C@H]1CCOC1)C2=O [Example 68] | 8.60

====

Target: UniProt:Q9NWZ3
Assay: IRAK4 kinase inhibition, Transcreener fluorescence polarization (ADP)
Assay type: biochemical
Settings: recombinant full-length His6-IRAK4 1.25 nM; 125 uM ATP; 125 uM peptide; 90 min; ATP Km 642 uM; read-out: IRAK4 Ki
METRIC: Ki

COMPOUND | METRIC | RESULT
CC(C)(O)[C@H](F)CN1Cc2cc(NC(=O)c3cnn4cccnc34)c(OCC(F)F)cc2C1=O | Ki | 0.26 nM
CC(C)N1Cc2cc(NC(=O)c3cnn4cccnc34)c(N(C)C)cc2C1=O | Ki | 1.9 nM
CC(C)(O)[C@H](F)CN1Cc2cc(NC(=O)c3cnn4cccnc34)c(O[C@H]3CC[C@@H](O)C3)cc2C1=O | Ki | 0.67 nM
CC(C)(O)[C@H](F)CN1Cc2cc(NC(=O)c3cnn4cccnc34)c(N3CCN(CCn4ccnc4)CC3)cc2C1=O | Ki | 2.1 nM
COc1cc2c(cc1NC(=O)c1cnn3ccc(C4CCNC4=O)nc13)CC(C)(C)O2 (stereo not drawn) | Ki | 100 nM
CC(C)(C)Oc1cc2c(cc1NC(=O)c1cnn3cccnc13)CN(C[C@@H](F)C(C)(C)O)C2=O | Ki | 0.61 nM
CC(C)(O)[C@H](F)CN1Cc2cc(NC(=O)c3cnn4cccnc34)c(C#N)cc2C1=O | Ki | 8.5 nM
CC(C)(O)[C@H](F)CN1Cc2cc(NC(=O)c3cnn4cccnc34)c(OCC(F)(F)F)cc2C1=O | Ki | 0.63 nM
CO[C@@H]1C[C@H]2CN(c3cc4c(cc3NC(=O)c3cnn5cccnc35)CN(C[C@@H](F)C(C)(C)O)C4=O)CCN2C1 | Ki | 12 nM
O=C(Nc1cc2c(cc1N1CCOCC1)C(=O)N(CC1CCOCC1)C2)c1cnn2cccnc12 | Ki | 3.7 nM
CC1(C)Cc2cc(NC(=O)c3cnn4cccnc34)c(N3CCN(Cc4[nH]cnc4Cl)CC3)cc2O1 | Ki | 2.3 nM
Cc1ncsc1CN1CCN(c2cc3c(cc2NC(=O)c2cnn4cccnc24)CC(C)(C)O3)CC1 | Ki | 4.6 nM
CC(C)(O)[C@H](F)CN1Cc2cc(NC(=O)c3cnn4cccnc34)c(N3CCN4CCC[C@@H]4C3)cc2C1=O | Ki | 1.8 nM
COCCN1CCN(c2cc3c(cc2NC(=O)c2cnn4cccnc24)CN(C[C@@H](F)C(C)(C)O)C3=O)CC1 | Ki | 2.6 nM
CC(C)(O)[C@H](F)CN1Cc2cc(NC(=O)c3cnn4cccnc34)c(OC3CCOCC3)cc2C1=O | Ki | 1.8 nM

====

Molecular target: human IRAK4 (Homo sapiens (Human))
Experiment: IRAK4 kinase inhibition, Transcreener fluorescence polarization (ADP)
Format: biochemical
Conditions: recombinant full-length His6-IRAK4 1.25 nM; 125 uM ATP; 125 uM peptide; 90 min; ATP Km 642 uM; read-out: IRAK4 Ki
hey, just use true if measured Ki is less than 200 nM, otherwise false

MOLECULE | GROUP LABEL
CN(C)c1cc2c(cc1NC(=O)c1cnn3ccc(C(=O)NC4CC4)nc13)CN(C[C@@H](F)C(C)(C)O)C2=O | true
CCN1C[C@H](COc2cc3c(cc2NC(=O)c2cnn4cccnc24)CC(C)(C)O3)CC1=O | false
Cc1ccc(-c2cc3c(cc2NC(=O)c2cnn4cccnc24)CN(C[C@@H](F)C(C)(C)O)C3=O)nc1 | true
COc1cc2c(cc1NC(=O)c1cnn3ccc(N(C)C)nc13)CC(C)(C)O2 | false
Cn1cc(COc2cc3c(cc2NC(=O)c2cnn4cccnc24)CN(C[C@@H](F)C(C)(C)O)C3=O)cn1 | true
CN(C)c1cc2c(cc1NC(=O)c1cnn3cccnc13)CC(C)(C)[C@H]2O | true
CC1(C)Cc2cc(NC(=O)c3cnn4cccnc34)c(OC[C@@H]3Cc4ccccc4[C@H]3N)cc2O1 | false

====

Molecular target: human IRAK4 (Homo sapiens (Human))
Assay: IRAK4 kinase inhibition, Transcreener fluorescence polarization (ADP)
Type: biochemical
pKi: −log10 of the molar value.
Readings of pKi for the listed compounds

COMPOUND | pKi
CC1(C)Cc2cc(NC(=O)c3cnn4cccnc34)c(N3CCN(C[C@H]4CCCC(=O)N4)CC3)cc2O1 (single isomer, unassigned) | 8.00
CC1(C)Cc2cc(NC(=O)c3cnn4cccnc34)c(OC[C@@H]3C[C@@H]4NCCO[C@H]4C3)cc2O1 (single isomer, unassigned) | 7.22
CN1C[C@@H](COc2cc3c(cc2NC(=O)c2cnn4cccnc24)CC(C)(C)O3)CC1=O (single isomer, unassigned) | 7.05
CCN1C[C@@H](COc2cc3c(cc2NC(=O)c2cnn4cccnc24)CC(C)(C)O3)CC1=O (single isomer, unassigned) | 6.60
COc1cc2c(cc1NC(=O)c1cnn3ccc(N4C[C@H](N)CC(F)(F)C4)nc13)CC(C)(C)O2 (single isomer, unassigned) | 8.11
CC1(C)Cc2cc(NC(=O)c3cnn4cccnc34)c(OC[C@H]3C[C@H]4NCCO[C@@H]4C3)cc2O1 (single isomer, unassigned) | 6.64
CN(C)c1cc2c(cc1NC(=O)c1cnn3cccnc13)CC(C)(C)[C@@H]2O (single isomer, unassigned) | 6.51
CC1(C)Cc2cc(NC(=O)c3cnn4cccnc34)c(O[C@@H]3CN(CC(N)=O)C[C@H]3N)cc2O1 (single isomer, unassigned) | 7.77
CC(C)Oc1cc2c(cc1NC(=O)c1cnn3cccnc13)CN([C@@H]1CCOC1)C2=O (single isomer, unassigned) | 8.74
CC1(C)Cc2cc(NC(=O)c3cnn4cccnc34)c(OC[C@@H]3C[C@H]4NCCO[C@@H]4C3)cc2O1 (single isomer, unassigned) | 6.14
C[C@@H]1C[C@@H]2CN(c3cc4c(cc3NC(=O)c3cnn5cccnc35)CN(C[C@@H](F)C(C)(C)O)C4=O)CCN2C1 (single isomer, unassigned) | 8.00
CC(C)(O)[C@H](F)CN1Cc2cc(NC(=O)c3cnn4cccnc34)c(O[C@H]3CCOC3)cc2C1=O (single isomer, unassigned) | 9.31
